Source listed as PubChem BioAssay AID179.

system: CEM cells HIV-1 protection, formazan growth assay; experiment: NCI AIDS Antiviral Assay; settings: measured here: growth of uninfected CEM cells
Would you kindly list log10 IC50 for each of these compounds?
// units: µM (pre-log); metric: IC50; scale: log10

Which value of log10 IC50 has been reported for Cc1n(CC(C)C)c2c([n+]1CC(=O)c1ccc([N+](=O)[O-])cc1)C(=O)c1ccccc1C2=O in the records?
-1.54

Which value of log10 IC50 has been reported for O=C1NC(=O)/C(=C/c2ccc(F)cc2)N1 in the records?
2.28

Which value of log10 IC50 has been reported for S=C(N/N=C(\c1ccccc1)c1ccccn1)NC1CCCCC1 in the records?
0.38

Which value of log10 IC50 has been reported for CCN(CC)CCOc1ccc(/C(=C(\Cl)c2ccccc2)c2ccccc2)cc1 in the records?
0.74

Which value of log10 IC50 has been reported for CCn1c(O)c(C=Nc2ccccc2)s/c1=N/Nc1nc(-c2ccccc2)cs1 in the records?
1.39

Which value of log10 IC50 has been reported for CN1CC[C@@H](c2c(O)cc(O)c3c(=O)cc(-c4ccccc4Cl)oc23)[C@@H](O)C1 in the records?
-1.33

Which value of log10 IC50 has been reported for Clc1cccc(N=C/C=C/Nc2cccc(Cl)c2)c1 in the records?
1.49

Which value of log10 IC50 has been reported for COC(=O)C1(C)CCCC2(C)c3cc(OC)ccc3C(=O)C(Cl)C12 (stereo unspecified) in the records?
1.48

Which value of log10 IC50 has been reported for C/C(=N\O)c1sc(-n2nc(-c3ccccc3)cc2-c2ccccc2)nc1C in the records?
1.65
